assay.method.text: Time taken by the compound to achieve maximum concentration in rat plasma at 30 mg/Kg upon oral administration.
Format: ADME, organism-based
Listing of entries alongside the reported Tmax.
Write the value in h as a bare number.

chemical.string | Tmax [h]
COc1ccc2cc(S(=O)(=O)N[C@@H](Cc3ccc(CN)cc3)C(=O)N(C)C3CCCC3)ccc2c1 | 2.33

# Tmax (molecule: CN(C)c1cccc2c(S(=O)(=O)N[C@@H](Cc3ccc(CN)cc3)C(=O)N(C)C3CCCC3)cccc12 ) is 1.6

Field Tmax (entry CN(C(=O)[C@H](Cc1ccc(CN)cc1)NS(=O)(=O)c1ccc2c(c1)CCCCC2)C1CCCC1 ) reads 1.33

Cited source for all entries: ChEMBL document CHEMBL1130583
